- System: PC-3 prostate
- Test name: NCI tumour cell line growth inhibition, 48 h
*1 amine or outer side, *2 acyl side, *3 side chain or, on linkers, in order; H or OH if unused. Where a SMILES comes first, the peptide text is derived from it. [ ]: non-standard residue; d: D form. ξ: configuration not given here. X21 = CC[C@@H](C)C(N[*:1])C(=O)[*:2]; ξR = N=C(N)NCCCC(N)C(=O)O; ξI = CCC(C)C(N)C(=O)O; ξL = CC(C)CC(N)C(=O)O; ξK = NCCCCC(N)C(=O)O; ξV = CC(C)C(N)C(=O)O; ξA = CC(N)C(=O)O
Given measured TGI, output label 1 if it is greater than or equal to 10 µM and label 0 if not.

>>> discrete_label("CC(=O)OCC1OC(O/C=C(\\CN=[N+]=[N-])C(C)=O)C(OC(C)=O)C(OC(C)=O)C1OC(C)=O (stereo not drawn)")
"label 1"
>>> discrete_label("O=C1ON=C2C3CC4CC12CC1(C3)C(=O)ON=C41")
"label 1"
>>> discrete_label("CCOC(=O)c1cc(C(=O)c2cc(OC)c(OC)c(OC)c2)n2ccccc12")
"label 1"
>>> discrete_label("CC(NC(C#N)CC12CC3CC(CC(C3)C1)C2)c1ccccc1 (stereo not drawn)")
"label 1"
>>> discrete_label("OCc1ccc(N(CCN2CCCC2)Cc2ccc(F)cc2)cc1Cl")
"label 1"
>>> discrete_label("C=CCN(c1cc(OC)c2[nH]cc(C)c2c1[N+](=O)[O-])S(C)(=O)=O")
"label 1"
>>> discrete_label("NC1=Nc2cc(OCCCN3Cc4ccccc4C3)c(OCC3CC3)cc2C12CCCC2")
"label 1"
>>> discrete_label("CC1(C)CC2(C)CC1CC2NC(=O)CCN1CCOCC1 (stereo not drawn)")
"label 1"
>>> discrete_label("O=C(COc1cccc(/C=C2\\CSc3ccccc3C2=O)c1)c1ccc(Cl)cc1")
"label 0"
>>> discrete_label("CC(Cc1ccccc1)NC1=NCCO1 (stereo not drawn)")
"label 1"
>>> discrete_label("O=c1cc(N=Nc2ccc(Cl)cc2)[nH]c(=O)[nH]1")
"label 1"
>>> discrete_label("CCC(C)C1NC(=O)C(CC(C)C)NC(=O)C(C)NC(=O)C(C(C)C)NC(=O)C(CCCCN)NC(=O)C(CC(C)C)NC(=O)C(C(C)C)NC(=O)[C@H](C)NC(=O)C(C(C)CC)NC(=O)C(CCCN=C(N)N)NC(=O)C(CCCCN)NC(=O)C(CCCN=C(N)N)NC(=O)C(CCCCN)NC(=O)C([C@H](C)CC)NC(=O)C(CCCCN)NC1=O (stereo partly drawn) (cyclo(A[ξV][ξL][ξK][ξV][ξA][ξL][ξI][ξK][X21][ξK][ξR][ξK][ξR][ξI]))")
"label 0"
>>> discrete_label("Fc1ccc2[nH]cc(SSc3c[nH]c4ccc(F)cc34)c2c1")
"label 1"
>>> discrete_label("COc1ccc(N(C)c2c3ccccc3nc3[nH]c4ccccc4c23)cc1")
"label 0"
>>> discrete_label("O=C1CCS/C(=N\\S(=O)(=O)c2ccc(N3N=C4c5ccccc5CC4C3c3cccs3)cc2)N1C(=O)c1ccccc1 (stereo not drawn)")
"label 1"
>>> discrete_label("CC(=O)OC1Oc2ccccc2-c2oc(=O)c(-c3cc4ccccc4oc3=O)cc21 (stereo not drawn)")
"label 1"
>>> discrete_label("CCOC(=O)Cn1c(=O)c2cc(-c3ccccc3)cc3c(Cl)nc4c(OC)c(OC)cc1c4c32")
"label 1"
